target: rat MAO-A (Rattus norvegicus, UniProt P21396)
Construct: from tissue; host or cells: rat liver mitochondria (male Sprague-Dawley rats)
Sequence (P21396 whole entry): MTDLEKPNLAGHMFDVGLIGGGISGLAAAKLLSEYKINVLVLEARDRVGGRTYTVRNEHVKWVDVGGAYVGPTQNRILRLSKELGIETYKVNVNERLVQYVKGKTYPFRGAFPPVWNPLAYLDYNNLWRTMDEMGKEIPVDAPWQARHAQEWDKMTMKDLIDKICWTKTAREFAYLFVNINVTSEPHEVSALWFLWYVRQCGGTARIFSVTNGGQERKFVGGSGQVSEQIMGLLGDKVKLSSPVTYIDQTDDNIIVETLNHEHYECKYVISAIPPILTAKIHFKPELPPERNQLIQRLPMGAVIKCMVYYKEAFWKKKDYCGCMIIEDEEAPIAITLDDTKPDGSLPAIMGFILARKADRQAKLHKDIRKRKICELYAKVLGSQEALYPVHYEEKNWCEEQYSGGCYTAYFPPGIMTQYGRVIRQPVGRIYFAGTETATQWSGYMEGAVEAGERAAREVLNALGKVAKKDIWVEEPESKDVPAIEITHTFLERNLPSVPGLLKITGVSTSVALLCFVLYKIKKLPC
assayProcedure: Rat MAO-A assay (Amplex Red fluorescence, rat liver mitochondria pre-treated with deprenyl)
Format: biochemical
experimentalConditions: rat liver mitochondria, substrate p-tyramine; read-out: rat MAO-A (rat liver mitochondria) IC50
pIC50: −log10 of the molar value.
Measured pIC50, listed per entry.
measurementType: pIC50

compound="O=C(Nc1ccc(O)c(Cl)c1)c1ccc2[nH]ncc2c1 [Example 5]" target="rat MAO-A (Rattus norvegicus, UniProt P21396)" measurementtype=pIC50 reading="> 5.00"
compound="COc1cc(NC(=O)c2ccc3[nH]ncc3c2)ccc1Cl [Example 4]" target="rat MAO-A (Rattus norvegicus, UniProt P21396)" measurementtype=pIC50 reading="< 5.00"
compound="COCCn1ncc2cc(C(=O)Nc3ccc(Cl)c(Cl)c3)ccc21 [Example 21]" target="rat MAO-A (Rattus norvegicus, UniProt P21396)" measurementtype=pIC50 reading="> 5.00"
compound="Cn1cc2cc(C(=O)Nc3ccc(F)c(Cl)c3)ccc2n1 [Example 18]" target="rat MAO-A (Rattus norvegicus, UniProt P21396)" measurementtype=pIC50 reading=5.77
compound="COc1ccc(NC(=O)c2ccc3[nH]ncc3c2)cc1Cl [Example 3]" target="rat MAO-A (Rattus norvegicus, UniProt P21396)" measurementtype=pIC50 reading="< 5.00"
compound="O=C(Nc1ccc(F)c(Cl)c1)c1ccc2[nH]ncc2c1 [Example 9]" target="rat MAO-A (Rattus norvegicus, UniProt P21396)" measurementtype=pIC50 reading="< 5.00"
compound="O=C(Nc1ccc(F)c(F)c1)c1ccc2[nH]ncc2c1 [Example 11]" target="rat MAO-A (Rattus norvegicus, UniProt P21396)" measurementtype=pIC50 reading="< 5.00"
compound="Cn1cc2cc(C(=O)Nc3ccc(F)c(F)c3)ccc2n1 [Example 20]" target="rat MAO-A (Rattus norvegicus, UniProt P21396)" measurementtype=pIC50 reading=5.73
compound="Cn1ncc2cc(C(=O)Nc3ccc(F)c(F)c3)ccc21 [Example 19]" target="rat MAO-A (Rattus norvegicus, UniProt P21396)" measurementtype=pIC50 reading="< 5.00"
compound="O=C(Nc1ccc(Cl)c(F)c1)c1ccc2[nH]ncc2c1 [Example 10]" target="rat MAO-A (Rattus norvegicus, UniProt P21396)" measurementtype=pIC50 reading="< 5.00"

---

Listed compounds paired with reported pIC50
target: rat MAO-A (Rattus norvegicus, UniProt P21396)
Construct: from tissue; host or cells: rat liver mitochondria (male Sprague-Dawley rats)
assayProcedure: Rat MAO-A assay (Amplex Red fluorescence, rat liver mitochondria pre-treated with deprenyl)
Assay type: biochemical
pIC50: −log10 of the molar value.
measurementType: pIC50

compound="Fc1cc(/N=C/c2ccc3[nH]ncc3c2)ccc1Cl [Example 23]" target="rat MAO-A (Rattus norvegicus, UniProt P21396)" measurementtype=pIC50 reading="< 5.00"
compound="Clc1cc(/N=C/c2ccc3[nH]ncc3c2)cnc1Cl [Example 25]" target="rat MAO-A (Rattus norvegicus, UniProt P21396)" measurementtype=pIC50 reading="< 5.00"
compound="Cn1ncc2cc(C(=O)Nc3ccc(Cl)c(Cl)c3)ccc21 [Example 13]" target="rat MAO-A (Rattus norvegicus, UniProt P21396)" measurementtype=pIC50 reading="< 5.00"
compound="Fc1ccc(/N=C/c2ccc3[nH]ncc3c2)cc1Cl [Example 24]" target="rat MAO-A (Rattus norvegicus, UniProt P21396)" measurementtype=pIC50 reading="< 5.00"

---

The following compounds are shown together with reported IC50 values.
target: human MAO-A (Homo sapiens, UniProt P21397)
Sequence (P21397 1-527): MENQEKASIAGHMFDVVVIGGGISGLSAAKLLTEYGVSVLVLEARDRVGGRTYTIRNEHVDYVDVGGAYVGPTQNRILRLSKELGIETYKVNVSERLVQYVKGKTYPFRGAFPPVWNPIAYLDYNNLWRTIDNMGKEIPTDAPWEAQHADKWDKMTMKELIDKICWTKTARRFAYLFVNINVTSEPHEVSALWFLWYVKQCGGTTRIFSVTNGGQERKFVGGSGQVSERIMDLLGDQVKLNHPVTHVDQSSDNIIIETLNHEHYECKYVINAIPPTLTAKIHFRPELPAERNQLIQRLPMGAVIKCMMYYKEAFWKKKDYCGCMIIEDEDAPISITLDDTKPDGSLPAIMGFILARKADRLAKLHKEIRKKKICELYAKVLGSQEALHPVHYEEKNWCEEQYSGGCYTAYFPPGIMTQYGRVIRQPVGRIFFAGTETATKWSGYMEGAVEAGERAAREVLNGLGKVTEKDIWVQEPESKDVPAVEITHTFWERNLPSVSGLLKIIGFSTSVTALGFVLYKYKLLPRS
assayProcedure: Human MAO-A assay (recombinant enzyme, Amplex Red fluorescence)
measurementType: IC50

structuresmiles=Clc1cc(/N=C/c2ccc3[nH]ncc3c2)cnc1Cl reading="< 10 µM"
structuresmiles=O=C(Nc1cc(Cl)cc(Cl)c1)c1ccc2[nH]ncc2c1 reading="< 10 µM"
structuresmiles=Fc1ccc(/N=C/c2ccc3[nH]ncc3c2)cc1Cl reading="< 10 µM"
structuresmiles=COc1ccc(NC(=O)c2ccc3[nH]ncc3c2)cc1Cl reading="> 10 µM"
structuresmiles=O=C(Nc1ccc(Cl)c(F)c1)c1ccc2[nH]ncc2c1 reading="< 10 µM"
structuresmiles=Cn1ncc2cc(C(=O)Nc3ccc(F)c(F)c3)ccc21 reading="> 10 µM"
structuresmiles=O=C(Nc1cnc(Cl)c(Cl)c1)c1ccc2[nH]ncc2c1 reading="< 10 µM"
structuresmiles=O=C(Nc1ccc(F)c(Cl)c1)c1ccc2[nH]ncc2c1 reading="> 10 µM"
structuresmiles=O=C(Nc1ccc(O)c(Cl)c1)c1ccc2[nH]ncc2c1 reading="> 10 µM"
structuresmiles=O=C(Nc1ccc(F)c(F)c1)c1ccc2[nH]ncc2c1 reading="> 10 µM"
structuresmiles=COc1ccc(NC(=O)c2ccc3[nH]ncc3c2)cc1OC reading="> 10 µM"
structuresmiles=Fc1cc(/N=C/c2ccc3[nH]ncc3c2)ccc1Cl reading="> 10 µM"

---

target: human MAO-A (Homo sapiens, UniProt P21397)
assayProcedure: Human MAO-A assay (recombinant enzyme, Amplex Red fluorescence)
experimentalConditions: read-out: human MAO-A IC50; recombinant human enzyme, p-tyramine 150 μM
Form field: IC50 (one value per entry).
measurementType: IC50 (µM)

molecule="COc1cc(NC(=O)c2ccc3[nH]ncc3c2)ccc1Cl [Example 4]" target="human MAO-A (Homo sapiens, UniProt P21397)" measurementtype=IC50 reading=8.79
molecule="Cn1cc2cc(C(=O)Nc3ccc(F)c(F)c3)ccc2n1 [Example 20]" target="human MAO-A (Homo sapiens, UniProt P21397)" measurementtype=IC50 reading=0.764
molecule="O=C(Nc1ccc(Cl)c(O)c1)c1ccc2[nH]ncc2c1 [Example 6]" target="human MAO-A (Homo sapiens, UniProt P21397)" measurementtype=IC50 reading=3
molecule="Cn1cc2cc(C(=O)Nc3ccc(F)c(Cl)c3)ccc2n1 [Example 18]" target="human MAO-A (Homo sapiens, UniProt P21397)" measurementtype=IC50 reading=0.562

---

measurementType: melting point

molecule="O=C(Nc1ccc(Cl)c(O)c1)c1ccc2[nH]ncc2c1 [Example 6]" reading="306.6 to 307.3 °C"
molecule="O=C(Nc1cc(Cl)cc(Cl)c1)c1ccc2[nH]ncc2c1 [Example 8]" reading="302.7 to 304.8 °C"
molecule="COc1cc(NC(=O)c2ccc3[nH]ncc3c2)ccc1Cl [Example 4]" reading="279.6 to 281.6 °C"
molecule="O=C(Nc1ccc(Cl)c(Cl)c1)c1ccc2[nH]ccc2c1 [Example 2]" reading="233.8 to 234.8 °C"
molecule="COc1ccc(NC(=O)c2ccc3[nH]ncc3c2)cc1OC [Example 7]" reading="258.3 to 261.3 °C"
